# Tested on: MC1r
# test.details: Functional selectivity evaluation at Cerep, MC1r
# Assay type: cell-based
Ends that are not written are not given here.
endpoint: EC50
I'd appreciate it if you included the unit after the number.

Reported EC50 ( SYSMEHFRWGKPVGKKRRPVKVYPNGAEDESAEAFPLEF [ACTH, reference compound] ) = 980 nM

====

The compounds listed here are annotated with their Emax.
# tested.system: hMC1r (Homo sapiens)
# test.details: Assay for agonist activity: cAMP accumulation in HBL melanoma cells
# Format: cell-based
# Design: endogenous in cells; host or cells: HBL human melanoma cells
# test.settings: HBL, compared to NDP-α-MSH as 100%, read-out: MC-1 Emax (average; cAMP HBL)
Bridge positions count the residues as written; N and C are the ends. Square brackets hold non-standard residues; d marks the D form. Peptide text beside a SMILES is read from it. dPhe(4-F) = N[C@H](Cc1ccc(F)cc1)C(=O)O; Nle = CCCC[C@H](N)C(=O)O; Orn = NCCC[C@H](N)C(=O)O; Dab = NCC[C@H](N)C(=O)O; Dap = NC[C@H](N)C(=O)O
Give just the number in %; leave the unit off.

CCCC[C@H](NC(C)=O)C(=O)N[C@H]1CC(=O)NC[C@@H](C(=O)N[C@@H](Cc2c[nH]c3ccccc23)C(N)=O)NC(=O)[C@H](CCCNC(=N)N)NC(=O)[C@@H](Cc2ccccc2)NC(=O)[C@H](Cc2c[nH]cn2)NC1=O [Example 9.4] (Ac-[Nle]DH[dF]R[Dap]W-NH2; lactam 2-6) :: 88
CCCC[C@H](NC(C)=O)C(=O)N[C@H]1CCC(=O)NCC[C@@H](C(=O)N[C@@H](Cc2c[nH]c3ccccc23)C(N)=O)NC(=O)[C@H](CCCNC(=N)N)NC(=O)[C@@H](Cc2ccccc2)NC(=O)[C@H](CCN)NC1=O [Example 9.41] :: 108
CCCC[C@H](NC(C)=O)C(=O)N[C@H]1CCC(=O)NCC[C@@H](C(N)=O)NC(=O)[C@H](CCCNC(=N)N)NC(=O)[C@@H](Cc2ccccc2)NC(=O)[C@H](CCCN)NC1=O [Example 9.56, Ac-Nle-cyclo(Glu-Orn-D-Phe-Arg-Dab)-NH2] (Ac-[Nle]E[Orn][dF]R[Dab]-NH2; lactam 2-6) :: 102
CCCC[C@H](NC(C)=O)C(=O)N[C@H]1CNC(=O)CCC(=O)NCC[C@@H](C(=O)N[C@@H](Cc2c[nH]c3ccccc23)C(N)=O)NC(=O)[C@H](CCCNC(=N)N)NC(=O)[C@@H](Cc2ccccc2)NC(=O)[C@H](Cc2c[nH]cn2)NC1=O [Example 9.43] :: 85
CCCC[C@H](NC(C)=O)C(=O)N[C@H]1CCC(=O)NC[C@@H](C(=O)N[C@@H](Cc2c[nH]c3ccccc23)C(N)=O)NC(=O)[C@H](CCCNC(=N)N)NC(=O)[C@@H](Cc2ccccc2)NC(=O)[C@H](Cc2c[nH]cn2)NC1=O [Example 9.3] :: 91
CCCC[C@H](NC(C)=O)C(=O)N[C@H]1CCC(=O)NCC[C@@H](C(=O)N[C@@H](Cc2c[nH]c3ccccc23)C(N)=O)NC(=O)CNC(=O)[C@@H](Cc2ccccc2)NC(=O)[C@H](Cc2c[nH]cn2)NC1=O [Example 9.34] (Ac-[Nle]EH[dF]G[Dab]W-NH2; lactam 2-6) :: 59

Reported Emax ( CCCC[C@H](NC(C)=O)C(=O)N[C@H]1CCC(=O)NCC[C@@H](C(N)=O)NC(=O)[C@H](CCCNC(=N)N)NC(=O)[C@@H](Cc2ccc(F)cc2)NC(=O)[C@H](CCCN)NC1=O [Example 9.61] (Ac-[Nle]E[Orn][dPhe(4-F)]R[Dab]-NH2; lactam 2-6) ) = 102

====

# tested.system: hMC1r (Homo sapiens, UniProt Q01726)
# Sequence (Q01726 whole entry): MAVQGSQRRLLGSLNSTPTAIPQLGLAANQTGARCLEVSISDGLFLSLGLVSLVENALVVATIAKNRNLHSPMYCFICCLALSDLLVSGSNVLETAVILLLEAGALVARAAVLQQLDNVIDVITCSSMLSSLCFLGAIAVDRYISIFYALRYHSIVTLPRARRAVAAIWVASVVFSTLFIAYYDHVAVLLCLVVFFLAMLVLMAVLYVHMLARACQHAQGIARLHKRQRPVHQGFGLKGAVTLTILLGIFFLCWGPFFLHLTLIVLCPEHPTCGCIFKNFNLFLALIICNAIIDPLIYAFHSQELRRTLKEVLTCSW
# test.details: Assay for agonist activity: cAMP accumulation in HBL melanoma cells
# Assay type: cell-based
# Design: endogenous in cells; host or cells: HBL human melanoma cells
# test.settings: HBL, compared to NDP-α-MSH as 100%, read-out: MC-1 Emax (average; cAMP HBL)
# Description: 8.2 Assay for Agonist Activity. Confluent HBL cells that express hMC1r or HEK-293 cells that express recombinant hMC4r were detached from culture plates by incubation in enzyme-free cell dissociation buffer. Dispersed cells were suspended in Earle's Balanced Salt Solution containing 10 mM HEPES (pH 7.5), 1 mM MgCl2, 1 mM glutamine, 0.5% albumin and 0.3 mM 3-isobutyl-1-methyl-xanthine (IBMX), a phosphodiesterase inhibitor. […]
The threshold is inclusive: Emax of exactly 90% counts as label 1; values below receive label 0.

CCCC[C@H](NC(C)=O)C(=O)N[C@H]1CCC(=O)NCC[C@@H](C(=O)N[C@@H](Cc2c[nH]c3ccccc23)C(N)=O)NC(=O)[C@H](CCCNC(=N)N)NC(=O)[C@@H](Cc2ccccc2)NC(=O)[C@H](CCCCN)NC1=O :: label 1
CCCC[C@H](NC(C)=O)C(=O)N[C@H]1CSSC[C@@H](C(=O)N[C@@H](Cc2c[nH]c3ccccc23)C(N)=O)NC(=O)[C@H](CCCNC(=N)N)NC(=O)[C@@H](Cc2ccccc2)NC(=O)[C@H](Cc2c[nH]cn2)NC1=O :: label 0
CCCC[C@H](NC(C)=O)C(=O)N[C@H]1CCC(=O)NCC[C@@H](C(=O)N[C@H](Cc2cccc3ccccc23)C(N)=O)NC(=O)[C@H](CCCNC(=N)N)NC(=O)[C@@H](Cc2ccccc2)NC(=O)[C@H](Cc2c[nH]cn2)NC1=O :: label 0
CCCC[C@H](NC(C)=O)C(=O)N[C@H]1CCNC(=O)CCC(=O)NC[C@@H](C(=O)N[C@@H](Cc2c[nH]c3ccccc23)C(N)=O)NC(=O)[C@H](CCCNC(=N)N)NC(=O)[C@@H](Cc2ccccc2)NC(=O)[C@H](Cc2c[nH]cn2)NC1=O :: label 0

Now look at this one.
# bool: Emax of CCCC[C@H](NC(C)=O)C(=O)N[C@H]1CCC(=O)NCC[C@@H](C(=O)N[C@@H](Cc2c[nH]c3ccccc23)C(N)=O)NC(=O)[C@H](CCCNC(=N)N)NC(=O)[C@@H](Cc2ccccc2)NC(=O)[C@H]2CCCN2C1=O >= 90%
label 1

====

The compounds listed here are annotated with their pKi.
# tested.system: UniProt Q01726
# test.details: Competitive inhibition binding assay using [I125]-NDP-α-MSH, hMC1r membranes
# test.settings: human recombinant MC1r, HEK-293 membranes, read-out: MC-1 Ki (average)
The read-out pKi is expressed as -log10 of concentration in moles per litre.

Study these solved cases before continuing.
CCCC[C@H](NC(C)=O)C(=O)N[C@H]1CNC(=O)CCC(=O)NCC[C@@H](C(=O)N[C@@H](Cc2c[nH]c3ccccc23)C(N)=O)NC(=O)[C@H](CCCNC(=N)N)NC(=O)[C@@H](Cc2ccccc2)NC(=O)[C@H](Cc2c[nH]cn2)NC1=O :: 10.19
CCCCC(NC(C)=O)C(=O)N[C@H]1CCC(=O)NCC[C@@H](C(=O)N[C@@H](CCCCN)C(N)=O)NC(=O)[C@H](CCCNC(=N)N)NC(=O)[C@@H](Cc2ccccc2)NC(=O)[C@H](Cc2c[nH]cn2)NC1=O (stereo partly drawn) :: 8.70
CCCCC(NC(C)=O)C(=O)N[C@H]1CCC(=O)NCC[C@@H](C(N)=O)NC(=O)[C@H](C)NC(=O)[C@@H](Cc2ccccc2)NC(=O)[C@H](Cc2c[nH]cn2)NC1=O (stereo partly drawn) :: 6.19
CCCC[C@H](NC(C)=O)C(=O)N[C@H]1CCC(=O)NCCC(C(=O)N[C@@H](Cc2c[nH]c3ccccc23)C(N)=O)NC(=O)[C@H](C)NC(=O)[C@@H](Cc2ccccc2)NC(=O)[C@H](Cc2c[nH]cn2)NC1=O (stereo partly drawn) :: 9.10
CCCC[C@H](NC(C)=O)C(=O)N[C@H]1CCC(=O)NC[C@@H](C(=O)N[C@@H](Cc2c[nH]c3ccccc23)C(C)=O)NC(=O)[C@H](CCCNC(=N)N)NC(=O)[C@@H](Cc2ccccc2)NC(=O)[C@H](Cc2c[nH]cn2)NC1=O :: 9.00

Now look at this entry.
Reported pKi ( CCCCC(NC(C)=O)C(=O)N[C@H]1CCC(=O)NCC[C@@H](C(N)=O)NC(=O)[C@H](CCCNC(=N)N)NC(=O)[C@@H](Cc2ccccc2)NC(=O)[C@H](Cc2c[nH]cn2)NC1=O (stereo partly drawn) ) = 8.15

====

# tested.system: hMC1r (Homo sapiens, UniProt Q01726)
# test.details: Assay for agonist activity: cAMP accumulation in HBL melanoma cells
# Type: cell-based
# Set-up: endogenous in cells; host or cells: HBL human melanoma cells
# test.settings: read-out: MC-1 EC50 (average; cAMP HBL)
endpoint: log10 of EC50 (log10 of the value in nM)
Hello, just confirming the data are log10 of EC50 with units of nM.

Study these solved cases before continuing.
CCCC[C@H](NC(C)=O)C(=O)N[C@H]1CNC(=O)CCC(=O)NCC[C@@H](C(=O)N[C@@H](Cc2c[nH]c3ccccc23)C(N)=O)NC(=O)[C@H](CCCNC(=N)N)NC(=O)[C@@H](Cc2ccccc2)NC(=O)[C@H](Cc2c[nH]cn2)NC1=O [Example 9.43] :: -1.80
CCCC[C@H](NC(C)=O)C(=O)N[C@H]1CCC(=O)NC[C@@H](C(=O)N[C@@H](Cc2c[nH]c3ccccc23)C(C)=O)NC(=O)[C@H](CCCNC(=N)N)NC(=O)[C@@H](Cc2ccccc2)NC(=O)[C@H](Cc2c[nH]cn2)NC1=O [Example 9.26] :: -0.97
CCCCC(NC(C)=O)C(=O)N[C@H]1CCC(=O)NCC[C@@H](C(N)=O)NC(=O)[C@H](C)NC(=O)[C@@H](Cc2ccccc2)NC(=O)[C@H](Cc2c[nH]cn2)NC1=O (stereo partly drawn) [Example 9.45, Ac-Nle-cyclo(Glu-His-D-Phe-Ala-Dab)-NH2] :: 1.64

Reported log10 of EC50 ( CCCCC(NC(C)=O)C(=O)N[C@H]1CCC(=O)NCC[C@@H](C(=O)N[C@@H](CCCCN)C(N)=O)NC(=O)[C@H](CCCNC(=N)N)NC(=O)[C@@H](Cc2ccccc2)NC(=O)[C@H](Cc2c[nH]cn2)NC1=O (stereo partly drawn) [Example 9.52] ) = -0.76

Reported log10 of EC50 ( CCCC[C@H](NC(C)=O)C(=O)N[C@H]1CCC(=O)NCCC(C(=O)N[C@@H](Cc2c[nH]c3ccccc23)C(N)=O)NC(=O)[C@H](C)NC(=O)[C@@H](Cc2ccccc2)NC(=O)[C@H](Cc2c[nH]cn2)NC1=O (stereo partly drawn) [Example 9.35] ) = -0.94

Reported log10 of EC50 ( CCCCC(NC(C)=O)C(=O)N[C@H]1CCC(=O)NCC[C@@H](C(N)=O)NC(=O)[C@H](CCCNC(=N)N)NC(=O)[C@@H](Cc2ccccc2)NC(=O)[C@H](Cc2c[nH]cn2)NC1=O (stereo partly drawn) [Example 9.44, Ac-Nle-cyclo(Glu-His-D-Phe-Arg-Dab)-NH2] ) = -0.49

Data credit: patent US20220088146A1
